Recorded Stability (%) = 100 × Ct/C0 for the following compounds
- assay notes: Long term (one year) stability study of H2S and thiols in human plasma samples
- setup conditions: QC1, one year storage, n = 3
Residues, ends and D or L forms follow the SMILES beside them.
Return type: number; implicit unit %.

Read off the recorded Stability (%) = 100 × Ct/C0 for `N[C@@H](CS)C(=O)NCC(=O)O`
91.9

Retrieve Stability (%) = 100 × Ct/C0 measured for N[C@@H](CCC(=O)O)C(=O)N[C@@H](CS)C(=O)O [Glutamylcysteine] (H-Glu-Cys-OH) and print it.
95.6

Provide measured Stability (%) = 100 × Ct/C0 value, entry: `N[C@@H](CCS)C(=O)O`
90.3

Return Stability (%) = 100 × Ct/C0 for the following compound: S [H2S, Hydrogen sulfide]
98.4

In one line, give reported Stability (%) = 100 × Ct/C0 of the entry `N[C@@H](CCC(=O)N[C@@H](CS)C(=O)NCC(=O)O)C(=O)O` .
82.1

Determine from records and report Stability (%) = 100 × Ct/C0 for `N[C@@H](CS)C(=O)O`
96.9

====

Parameter Stability (%) = 100 × Ct/C0: see the listing below.
- assay notes: Long term (one year) stability study of H2S and thiols in human plasma samples
- setup conditions: QC2, one year storage, n = 3
Residues, ends and D or L forms follow the SMILES beside them.
Hi! Could you send only the number? It should be in %, unit omitted.

Field: example entries. Status: answers known.
# compound, numeric readout
rows = [
    ("N[C@@H](CS)C(=O)O [Cysteine]", 96.6),
    ("N[C@@H](CCC(=O)O)C(=O)N[C@@H](CS)C(=O)O [Glutamylcysteine] (H-Glu-Cys-OH)", 96.2),
    ("S [H2S, Hydrogen sulfide]", 97.4),
]

Fill in Stability (%) = 100 × Ct/C0 for record N[C@@H](CCS)C(=O)O [Homocysteine]
101.3

Please list Stability (%) = 100 × Ct/C0 recorded for the compound N[C@@H](CS)C(=O)NCC(=O)O [Cysteinylglycine]
99.0

Supply Stability (%) = 100 × Ct/C0 value. Item: N[C@@H](CCC(=O)N[C@@H](CS)C(=O)NCC(=O)O)C(=O)O [Glutathione]
95.8

====

- assay notes: Long term (one year) stability study of H2S and thiols in human plasma samples
- setup conditions: QC3, one year storage, n = 3
Residues, ends and D or L forms follow the SMILES beside them.
assay endpoint: Stability (%) = 100 × Ct/C0
Entry rule: numbers only, all in %.

Past entries and their recorded results:
# compound, unit tag, Stability (%) = 100 × Ct/C0
rows = [
    ("N[C@@H](CS)C(=O)O", "%", 100.5),
    ("N[C@@H](CCS)C(=O)O", "%", 108.2),
    ("N[C@@H](CCC(=O)N[C@@H](CS)C(=O)NCC(=O)O)C(=O)O", "%", 99.0),
    ("N[C@@H](CS)C(=O)NCC(=O)O", "%", 94.4),
    ("S [H2S, Hydrogen sulfide]", "%", 99.0),
]

Query Stability (%) = 100 × Ct/C0 for N[C@@H](CCC(=O)O)C(=O)N[C@@H](CS)C(=O)O [Glutamylcysteine] (H-Glu-Cys-OH)
94.3
